FYI, the data here is from patent US9550796B2.

- System: MV-4-11
MEASURED_METRIC: GI50 (nM)

Consider the worked cases shown below.
Cc1c[nH]c2c1C(=O)N(c1cc(C)c3nnc(C)n3c1)C2c1ccc(Cl)cc1 (stereo not shown)
7.68
CNC(=O)c1cn(C)c2c1C(=O)N(c1cc(C)c3nnn(C)c3n1)C2c1ccc(Cl)cc1 (stereo not shown)
2.54
CC(=O)Nc1cn(C)c2c1C(=O)N(c1cc(C)c3nnc(C)n3c1)[C@@H]2c1ccc(Cl)cc1
19.8
Cn1ccc2c1[C@@H](c1ccc(Cl)cc1)N(c1cc(Cl)c(=O)n(C)c1)C2=O
57.6
CNC(=O)c1cn(C)c2c1C(=O)N(c1cc(C)c3nnc(C)n3c1)C2c1ccc(Cl)cc1 (stereo not shown)
13.6

A. Cc1cc(N2C(=O)c3ccn(C)c3C2c2ccc(Cl)c(F)c2)cn(C)c1=O (stereo not shown)
B. CCOC(=O)n1cc(C)c2c1C(c1ccc(Cl)cc1)N(c1cc(C)c3nnc(C)n3c1)C2=O (stereo not shown)
C. Cn1c(-c2ccn(C)c(=O)c2)cc2c1C(c1ccc(Cl)cc1)N(c1cc(Cl)c(=O)n(C)c1)C2=O (stereo not shown)
D. Cc1cn(C2CN(C)C2)c2c1C(=O)N(c1cc(C)c3nnc(C)n3c1)C2c1ccc(Cl)cc1 (stereo not shown)
E. Cc1cc(N2C(=O)c3ccn(C)c3C2c2ccc(Cl)cc2)nn2c(C)nnc12 (stereo not shown)
Request: Hey, can you sort those molecules up there by GI50, smallest first? Could you list the labels in the order requested?
Result: D, E, B, C, A

---

- Tested on: MV-4-11
- ASSAY_SUMMARY: Cell growth inhibition assay (CellTiter-Glo), MV-4-11
- Type: cell-based, human
- CONDITION_CONTEXT: MV-4-11 cells, 4 days, total growth inhibition
Reported values of MV-4-11 TGI for individual entries
Unit nM implied. Number only.

Consider the worked cases shown below.
CNC(=O)Cn1cc(C)c2c1C(c1ccc(Cl)cc1)N(c1cc(C)c3nnc(C)n3c1)C2=O (centres unmarked) [Example 127]
640
Cc1cc(N2C(=O)c3c(C(=O)N(C)C)cn(C)c3C2c2ccc(Cl)cc2)cn2c(C)nnc12 (centres unmarked) [Example 100]
368.5
CC(=O)Nc1cn(C)c2c1C(=O)N(c1cc(C)c3nnn(C)c3n1)C2c1ccc(Cl)cc1 (centres unmarked) [Example 96]
21.2

Request: Recorded MV-4-11 TGI of Cc1cc(N2C(=O)c3ccn(C)c3C2c2ccc(F)cc2)cn(C)c1=O (centres unmarked) [Example 82] , please.
Result: 189

Request: Recorded MV-4-11 TGI of Cn1c(-c2cccc(=O)n2C)cc2c1C(c1ccc(Cl)cc1)N(c1cc(Cl)c(=O)n(C)c1)C2=O (centres unmarked) [Example 44] , please.
Result: 391

---

MV-4-11 measurements of GI50, listed per entry.
MEASURED_METRIC: GI50 (nM)

Consider the worked cases shown below.
Cc1cc(N2C(=O)c3cc(-c4ccc(=O)n(C)c4)n(C4CC4)c3C2c2ccc(Cl)cc2)cn(C)c1=O (stereo not shown) [Example 67]
66.7
Cc1cc(N2C(=O)c3ccn(C)c3C2c2ccc(C#N)cc2)cn(C)c1=O (stereo not shown) [Example 83]
326
COc1cccc(-c2cc3c(n2C)C(c2ccc(Cl)cc2)N(c2cc(C)c(=O)n(C)c2)C3=O)n1 (stereo not shown) [Example 59]
74
Cc1cc(N2C(=O)c3cc(-c4cccc(=O)n4C)n(C4CC4)c3C2c2ccc(Cl)cc2)cn(C)c1=O (stereo not shown) [Example 63]
94.4
Cc1cc(N2C(=O)c3cc(C4=CCOCC4)n(C)c3C2c2ccc(Cl)cc2)cn2c(C)nnc12 (stereo not shown) [Example 31]
13.3
Cc1cc(N2C(=O)c3ccn(C(=O)N(C)C)c3C2c2ccc(Cl)cc2)cn2c(C)nnc12 (stereo not shown) [Example 24]
92.8
Cc1cc(N2C(=O)c3cc(-c4ccnc(C(F)(F)F)n4)n(C)c3C2c2ccc(Cl)cc2)cn(C)c1=O (stereo not shown) [Example 49]
92.3
CCOC(=O)n1cc(C2CC2)c2c1C(c1ccc(Cl)cc1)N(c1cc(C)c3nnc(C)n3c1)C2=O (stereo not shown) [Example 125]
12.1

A. COc1ncc(-c2cc3c(n2C)C(c2ccc(Cl)cc2)N(c2cc(Cl)c(=O)n(C)c2)C3=O)c(OC)n1 (stereo not shown) [Example 38]
B. CNC(=O)c1cn(C)c2c1C(=O)N(c1cc(C)c3nnn(C)c3c1)C2c1ccc(Cl)cc1 (stereo not shown) [Example 98]
Request: Of the two listed items, which has the higher GI50? First: A Second: B Answer by stating the label of the chosen item.
Result: A
(A: 29.4 nM, B: 4.95 nM)
